target: SARS-CoV-2 RBD protein (Sino Biological, Cat: 40592-V08B) (SARS-CoV-2, UniProt P0DTC2 319-541); experiment: BLI (Octet), mAb on Protein A sensor
Entries annotated with measured pKd
Recall that pKd is obtained by taking minus log10 of the concentration measured in molar.

| binder | recordedMeasurement |
| --- | --- |
| CoV2-32 (antibody, V domains shown) VH: EVQLVESGGGLVQPGRSLRLSCAAPRFTFDDYAIHWVRQVPGKGLEWVSGSSWNSGTIGYAPSVKGRFTISRDNAKNSLFLQMNSLRVEDTALYYCAILPGDYNRVADVFDIWGQGTMVIVSS VL: QAVVTQPPSVSGAPGQRVTISCTGSSSNIGAGYDVHWYQQLPGTAPKLLIYGNNNRPSGVPDRFSGSKSGTSASLAITGLQVEDEADYYCQSYDSSLSGYVFGTGTKVTVL | 5.76 |

Now for another entry.
Per the records, this binder ( CoV2-19 (antibody, V domains shown) VH: QVQLVQSGAEMKKPGASVKVSCKTSGYTFTNSYIHWVRQAPGQGLEWMGWINPISGGTNYAQKFQGRVTMTRDTSINTAYMELSRLRSDDTAVYYCARDRGDYDYGWGTSPFYFDYWGQGTLVTVSS VL: AIQLTQSPSSLSASVGDRVTITCRTSHTVNSYLNWYQQEPGKAPKLLIYAASNLQSGVPSRFSGSGSGTDFSLTIHNLQPEDFATYYCQQSYRTPLTFGQGTKVDIK ) has pKd equal to 6.86
